assay: A CellTox Green Cytotoxicity Assay to monitor cytotoxicity in HepG2 cells - 32 hour (AID 1224883); conditions: CellTox Green fluorescence; series mostly up to 76.8 µM; note: nearly all actives have a fitted effect of over 50% in size
Results filed as inconclusive are left out. The source made the active and inactive calls. Calls come from the whole dose curve; as a rule, active = well fitted activation curve with a large enough effect in the repeat runs; inconclusive = weak or mixed curves; inactive = flat fitted curve, though single readings scatter.
RECORDED_METRIC: outcome

Here is how some compounds turned out for outcome.
FC(F)(F)C(Cl)Br (stereo not given)	inactive
ClC/C=C/CCl	inactive
C[N+](C)(C)CCO	inactive
COc1ccc(C(=O)c2ccccc2O)c(O)c1	inactive
COCCOCCOCCO	inactive
CC(=O)Nc1ccc2c(c1)Cc1cc(NC(C)=O)ccc1-2	inactive

Exercise: # outcome lookup, item `C=C1C[C@H]2[C@@H]3C=C(C)C4=CC(=O)CC[C@]4(C)[C@H]3CC[C@]2(C)[C@@]1(OC(C)=O)C(C)=O`
Solution: inactive

Exercise: What does the data say about its outcome? Entry: `CN(C)/N=N/c1nc[nH]c1C(N)=O`
Solution: inactive

Exercise: Record request: outcome value, item `Cc1ccc(S(=O)(=O)NCl)cc1`
Solution: inactive

Exercise: Which outcome is reported for this compound? `O=C(O)CCCC(=O)O`
Solution: inactive
